Origin of values: ChEMBL document CHEMBL3045779

Tested on: Escherichia coli
Experiment: Antibacterial activity against Escherichia coli at 100 ug/ml after 24 hr by paper disk diffusion method
Assay type: functional
Details: read-out: IZ
Kindly supply the reported zone of inhibition at 100 µg/mL values for the records listed here.
Numbers only, in mm.

CCOC(=O)C1=C(N)Oc2c(c(=O)[nH]c3ccc(C)cc23)C1c1ccc(O)cc1 (stereo not drawn)	18.2
CCOC(=O)C1=C(N)Oc2c(c(=O)[nH]c3ccccc23)C1c1ccccc1Cl (stereo not drawn)	15

Request: For the compound CCOC(=O)C1=C(N)Oc2c(c(=O)[nH]c3ccccc23)C1c1ccc(O)cc1 (stereo not drawn) , what zone of inhibition at 100 µg/mL is on record?
Result: 17

----------
System: Staphylococcus aureus
Experiment: Antibacterial activity against Staphylococcus aureus at 50 ug/ml after 24 hr by paper disk diffusion method
Assay type: functional
Conditions: read-out: IZ
value type: zone of inhibition at 50 µg/mL (mm)
One number for each entry, in mm.

Solved cases below.
CCOC(=O)C1=C(N)Oc2c(c(=O)[nH]c3ccccc23)C1c1cccc(Cl)c1 (stereo not drawn)	15.4
CCOC(=O)C1=C(N)Oc2c(c(=O)[nH]c3ccc(C)cc23)C1c1ccccc1 (stereo not drawn)	14.7
CCOC(=O)C1=C(N)Oc2c(c(=O)[nH]c3ccccc23)C1c1cccc([N+](=O)[O-])c1 (stereo not drawn)	17.3
CC1COc2c(N3CCN(C)CC3)c(F)cc3c(=O)c(C(=O)O)cn1c23 (stereo not drawn)	21.2
CCOC(=O)C1=C(N)Oc2c(c(=O)[nH]c3ccc(C)cc23)C1c1ccc(Cl)cc1 (stereo not drawn)	15.8
CCOC(=O)C1=C(N)Oc2c(c(=O)[nH]c3ccc(C)cc23)C1c1ccccc1Cl (stereo not drawn)	16.1
CCOC(=O)C1=C(N)Oc2c(c(=O)[nH]c3ccc(C)cc23)C1c1ccc(O)cc1 (stereo not drawn)	17.6
CCOC(=O)C1=C(N)Oc2c(c(=O)[nH]c3ccccc23)C1c1ccc(Cl)cc1 (stereo not drawn)	16.3
CCOC(=O)C1=C(N)Oc2c(c(O)nc3ccccc23)C1c1ccccc1 (stereo not drawn)	15.6
CCOC(=O)C1=C(N)Oc2c(c(=O)[nH]c3ccccc23)C1c1ccc(O)cc1 (stereo not drawn)	16.9

Please look at the items below and tell me zone of inhibition at 50 µg/mL for each one, in order.
1. CCOC(=O)C1=C(N)Oc2c(c(=O)[nH]c3ccc(C)cc23)C1c1cccc([N+](=O)[O-])c1 (stereo not drawn)
2. CCOC(=O)C1=C(N)Oc2c(c(=O)[nH]c3ccc(C)cc23)C1c1cccc(Cl)c1 (stereo not drawn)
3. CCOC(=O)C1=C(N)Oc2c(c(=O)[nH]c3ccccc23)C1c1ccccc1Cl (stereo not drawn)

Result:
[18.1, 14.6, 15.2]

----------
Test system: Escherichia coli
Assay: Antibacterial activity against Escherichia coli at 50 ug/ml after 24 hr by paper disk diffusion method
Format: functional
Details: read-out: IZ
Task for the reader: assign each of the following compounds its reported zone of inhibition at 50 µg/mL.
Give bare numbers, in mm.

Below: 5 compounds and their reported zone of inhibition at 50 µg/mL.
CN[C@@H]1[C@H](O[C@H]2[C@H](O[C@H]3[C@H](O)[C@@H](O)[C@H](N=C(N)N)[C@@H](O)[C@@H]3N=C(N)N)O[C@@H](C)[C@]2(O)C=O)O[C@@H](CO)[C@H](O)[C@H]1O	20.1
CCOC(=O)C1=C(N)Oc2c(c(=O)[nH]c3ccccc23)C1c1cccc([N+](=O)[O-])c1 (stereo not drawn)	16.1
CCOC(=O)C1=C(N)Oc2c(c(=O)[nH]c3ccccc23)C1c1ccc(O)cc1 (stereo not drawn)	15.7
CCOC(=O)C1=C(N)Oc2c(c(=O)[nH]c3ccc(C)cc23)C1c1cccc([N+](=O)[O-])c1 (stereo not drawn)	16.5
CCOC(=O)C1=C(N)Oc2c(c(=O)[nH]c3ccc(C)cc23)C1c1ccc(O)cc1 (stereo not drawn)	16.2

Could you report zone of inhibition at 50 µg/mL for every entry in the following list?
1. CCOC(=O)C1=C(N)Oc2c(c(=O)[nH]c3ccccc23)C1c1ccc(Cl)cc1 (stereo not drawn)
2. CCOC(=O)C1=C(N)Oc2c(c(=O)[nH]c3ccc(C)cc23)C1c1cccc(Cl)c1 (stereo not drawn)
3. CCOC(=O)C1=C(N)Oc2c(c(=O)[nH]c3ccc(C)cc23)C1c1ccccc1 (stereo not drawn)
4. CCOC(=O)C1=C(N)Oc2c(c(=O)[nH]c3ccccc23)C1c1ccccc1Cl (stereo not drawn)
5. CCOC(=O)C1=C(N)Oc2c(c(=O)[nH]c3ccccc23)C1c1cccc(Cl)c1 (stereo not drawn)

Result:
1: 15.2; 2: 14.1; 3: 15.7; 4: 13.7; 5: 14.1

Below are 3 compounds. Give each one its zone of inhibition at 50 µg/mL.
1. CCOC(=O)C1=C(N)Oc2c(c(O)nc3ccccc23)C1c1ccccc1 (stereo not drawn)
2. CCOC(=O)C1=C(N)Oc2c(c(=O)[nH]c3ccc(C)cc23)C1c1ccc(Cl)cc1 (stereo not drawn)
3. CCOC(=O)C1=C(N)Oc2c(c(=O)[nH]c3ccc(C)cc23)C1c1ccccc1Cl (stereo not drawn)

Result:
1: 15.2; 2: 15.4; 3: 15.4

----------
Test system: Escherichia coli
Assay: Antibacterial activity against Escherichia coli at 100 ug/ml after 24 hr by paper disk diffusion method
Type: functional
Conditions: read-out: IZ
value type: zone of inhibition at 100 µg/mL (mm)
Numbers only, in mm.

Recorded results for 3 compounds are shown here.
CCOC(=O)C1=C(N)Oc2c(c(O)nc3ccccc23)C1c1ccccc1 (stereo not drawn)	16.2
CCOC(=O)C1=C(N)Oc2c(c(=O)[nH]c3ccc(C)cc23)C1c1ccccc1 (stereo not drawn)	16.2
CCOC(=O)C1=C(N)Oc2c(c(=O)[nH]c3ccccc23)C1c1ccc(Cl)cc1 (stereo not drawn)	16.2

# map each compound to its zone of inhibition at 100 µg/mL
1. CCOC(=O)C1=C(N)Oc2c(c(=O)[nH]c3ccc(C)cc23)C1c1cccc([N+](=O)[O-])c1 (stereo not drawn)
2. CCOC(=O)C1=C(N)Oc2c(c(=O)[nH]c3ccc(C)cc23)C1c1ccccc1Cl (stereo not drawn)
3. CN[C@@H]1[C@H](O[C@H]2[C@H](O[C@H]3[C@H](O)[C@@H](O)[C@H](N=C(N)N)[C@@H](O)[C@@H]3N=C(N)N)O[C@@H](C)[C@]2(O)C=O)O[C@@H](CO)[C@H](O)[C@H]1O [STREPTOMYCIN]

Result:
17.4
17.3
25.2

Would you mind giving zone of inhibition at 100 µg/mL for every compound in the list below?
1. CCOC(=O)C1=C(N)Oc2c(c(=O)[nH]c3ccc(C)cc23)C1c1cccc(Cl)c1 (stereo not drawn)
2. CCOC(=O)C1=C(N)Oc2c(c(=O)[nH]c3ccccc23)C1c1cccc([N+](=O)[O-])c1 (stereo not drawn)

Result:
1. 15.2
2. 17

----------
System: Rattus norvegicus
Assay: Anti-inflammatory activity inRattus norvegicus albino (rat) assessed as inhibition of carrageenan-induced paw edema at 100 mg/kg administered 1 hr prior to carrageenan-challenge measured after 3 hr by plethysmometric analysis relative to control
Type: functional
For each entry below, report its inhibition in vivo at 100 mg/kg value.
Numbers only, in %.

Some solved entries appear below for comparison.
CCOC(=O)C1=C(N)Oc2c(c(=O)[nH]c3ccccc23)C1c1ccc(Cl)cc1 (stereo not drawn)	80.7
CCOC(=O)C1=C(N)Oc2c(c(=O)[nH]c3ccccc23)C1c1ccccc1Cl (stereo not drawn)	80.6

Request: Could you tell me which inhibition in vivo at 100 mg/kg is on file for CCOC(=O)C1=C(N)Oc2c(c(=O)[nH]c3ccc(C)cc23)C1c1ccc(Cl)cc1 (stereo not drawn) ?
Result: 77.7
